// provenance: paper PMC12608155

- Tested on: HepG2
- Method Description: Cytotoxicity in HepG2 cells (alamarBlue, 72 h)
- Stated Conditions: read-out: CC50 HepG2; 72 h, alamarBlue
Experimental Endpoint: CC50 (µM)
Please state the figure in µM; there is no need to write the unit.

-- ask Identify measured CC50 corresponding to COc1ccc2c(C)c3[n+](cc2c1OC)CCc1cc2c(cc1-3)OCO2
-- reply 28.3

-- ask Identify measured CC50 corresponding to CCOC1c2c(ccc3c2OCO3)-c2ccc3cc4c(cc3c2N1C)OCO4 (stereo not shown)
-- reply 1.44

-- ask Identify measured CC50 corresponding to COc1ccc2c(c1OC)C(OC)N(C)c1c-2ccc2cc3c(cc12)OCO3 (stereo not shown)
-- reply 5.15

====

Recorded CC50 at 72 h, one value per entry.
- Method Description: Cytotoxicity in HepG2 cells (alamarBlue, 72 h)
- Stated Conditions: human

Below, each entry is followed by its recorded CC50 at 72 h result.
Molecule	Result
CC[C@@H]1[C@H]2CCCCN3[C@H]2[C@@H](C[C@H]3[C@@H]2C[C@H](C)C(=O)O2)[C@H]2[C@@H]1OC(=O)[C@H]2C	> 50 µM
COc1ccc2c(c[n+](C)c3c4cc5c(cc4ccc23)OCO5)c1OC	5.5 µM
CN1Cc2c(ccc3c2OCO3)-c2ccc3cc4c(cc3c21)OCO4 [Dihydrosanguinarine]	> 40 µM
CC[C@@H]1[C@H]2CCCCN3[C@H]2[C@H](C[C@H]3[C@@H]2C[C@H](C)C(=O)O2)[C@@H]2[C@H]1OC(=O)[C@H]2C	> 40 µM

Turning now to a further molecule:
-- ask Identify measured CC50 at 72 h corresponding to c1c2c(cc3c1OCO3)-c1cc3ccc4c(c3c[n+]1CC2)OCO4
-- reply > 10 µM

====

- Method Description: Cytotoxicity in HepG2 cells (alamarBlue, 72 h)
- Stated Conditions: human, HepG2 hepatoma cells
Recorded CC50 at 72 h, one value per entry.
Please state the figure in µM; there is no need to write the unit.

Molecule	Recorded Number
COc1cc2c[n+](C)c3c4cc5c(cc4ccc3c2cc1OC)OCO5	0.49
C[n+]1cc2c3c(ccc2c2ccc4cc5c(cc4c21)OCO5)OCO3	2.08
COc1cc2c3c(cc4ccccc4c3c1OC)N(C)CC2 [Dehydronuciferine]	25.5

Turning now to a further molecule:
-- ask Identify measured CC50 at 72 h corresponding to CN1C(=O)/C(=C2/C(=O)Nc3ccccc32)c2ccccc21
-- reply 20.4

====

- Test system: RAW 264.7
- Method Description: Cytotoxicity in RAW 264.7 cells (alamarBlue, 72 h)
- Stated Conditions: read-out: CC50 RAW 264.7; 72 h, alamarBlue
Experimental Endpoint: CC50 (µM)
Please state the figure in µM; there is no need to write the unit.

Compound	Unit Name	CC50
COc1ccc2c(c1OC)C(OC)N(C)c1c-2ccc2cc3c(cc12)OCO3 (stereo not shown) [Angoline]	µM	5.28

Turning now to a further compound:
-- ask Identify measured CC50 corresponding to CCOC1c2c(ccc3c2OCO3)-c2ccc3cc4c(cc3c2N1C)OCO4 (stereo not shown) [Ethoxysanguinarine]
-- reply 1.62

====

- Method Description: Cytotoxicity in RAW 264.7 cells (alamarBlue, 72 h)
- Stated Conditions: mouse
Recorded CC50 at 72 h, one value per entry.
Please state the figure in µM; there is no need to write the unit.

Compound	Experimental Endpoint	Unit Name	Recorded Number
CC[C@@H]1[C@H]2CCCCN3[C@H]2[C@H](C[C@H]3[C@@H]2C[C@H](C)C(=O)O2)[C@@H]2[C@H]1OC(=O)[C@H]2C	CC50 at 72 h	µM	50
CN1Cc2c(ccc3c2OCO3)-c2ccc3cc4c(cc3c21)OCO4 [Dihydrosanguinarine]	CC50 at 72 h	µM	46.5

-- ask Identify measured CC50 at 72 h corresponding to CC[C@@H]1[C@H]2CCCCN3[C@H]2[C@@H](C[C@H]3[C@@H]2C[C@H](C)C(=O)O2)[C@H]2[C@@H]1OC(=O)[C@H]2C
-- reply 39.1

-- ask Identify measured CC50 at 72 h corresponding to COc1ccc2c(c[n+](C)c3c4cc5c(cc4ccc23)OCO5)c1OC
-- reply 5.51
